# method notes: Solubility (Test F)
# Assay type: physicochemical
# experimental setup: arithmetic mean if run multiple times
# solubility >= 100 µM gives 1.0, anything below gives 0.0

| molecule | assigned class |
| --- | --- |
| COc1cc(F)c(O[C@H]2CC[C@@H](C(=O)O)CC2)cc1C(=O)N[C@@H]1[C@H]2CC[C@H](C2)[C@@H]1C(=O)NC1CCC1 [Example 177] | 1.0 |
| COc1cc(F)c(O[C@H]2CC[C@@](C)(C(=O)O)CC2)cc1C(=O)N[C@@H]1CCC[C@@H]1C(=O)NCC1(C)CCCCC1 [Example 64] | 1.0 |
| COc1cc(F)c(O[C@H]2CC[C@@H](C(=O)O)CC2)cc1C(=O)N[C@@H]1[C@H]2CC[C@H](C2)[C@@H]1C(=O)Nc1ccc(S(=O)(=O)C(F)(F)F)cc1 [Example 15] | 1.0 |
| COc1cc(F)c(-c2ccc(C(=O)O)c(C)c2)cc1C(=O)N[C@@H]1[C@H]2CC[C@H](C2)[C@@H]1C(=O)Nc1cccc(S(=O)(=O)C(F)(F)F)c1 [Example 246] | 1.0 |
| COc1cc(F)c(-c2ccc(C(N)=O)cc2)cc1C(=O)N[C@H]1[C@@H](C(=O)Nc2cccc(S(=O)(=O)C(F)(F)F)c2)[C@@H]2C=C[C@H]1C2 [Example 270] | 0.0 |
| COc1cc(F)c(O[C@H]2CC[C@@H](C(=O)O)CC2)cc1C(=O)N[C@@H]1[C@H]2CC[C@H](C2)[C@@H]1C(=O)Nc1cc(F)cc(C(F)(F)F)c1 [Example 29] | 1.0 |
